- tested on: T1, recombinant human IL-22 (human, UniProt Q9GZX6 34-179)
- T1 construct: also called rh-IL22
- T1 sequence: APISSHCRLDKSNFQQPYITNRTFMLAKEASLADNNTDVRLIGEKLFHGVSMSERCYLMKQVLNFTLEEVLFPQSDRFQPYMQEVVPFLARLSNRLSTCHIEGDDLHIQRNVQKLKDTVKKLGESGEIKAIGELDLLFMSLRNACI
- assay comment: BLI (Octet), His-tagged VHH on HIS1K tips, IL-22 in solution
assay endpoint: koff (s⁻¹)
Numbers only here, please. The scale is s⁻¹.

// worked examples, koff included
Humanized IL22-223 (VHH, not shown: C-terminal His-tag) VHH: EVQLVESGGGLVQPGGSLRLSCAASGFTLNYYVMSWFRQAPGKEREGVSAISSSDGSTYYADSVKGRFTISRDNSKNTLYLQMNSLRAEDTAVYYCAADLRAYYTVPLWASEYDYWGQGTVSS :: 0.000547
IL22-223 (VHH, Llama single domain antibody with C-terminal His-tag; not shown: C-terminal His-tag) VHH: QVQLVESGGGLAQPGGSLRLSCAVSGFTLNYYVIAWFRQAPGKEREGVSCISSSDGSTYYTDSVKGRFTISRDNAKNTVYLQMDSLKPEDTAVYYCAADLRAYYTVPLWASEYDYWGQGTQVTVSS :: 0.00036
IL22-A3 (VHH, Llama single domain antibody with C-terminal His-tag; not shown: C-terminal His-tag) VHH: QVQLVESGGGLVQPGGSLRLSCEASGRTFSSVSMGWFRQAPGKERVIVAAADWSGTTYYTGSLKGRFTISRDNAKNMVYLQMNSLKPEDTAVYYCAASDPRRSAYKYWGQGTQVTVSS :: 0.000405

# next binder below
Lookup: Request the reported koff associated with IL22-354 (VHH, Llama single domain antibody with C-terminal His-tag; not shown: C-terminal His-tag) VHH: EVQLVESGGGLVQPGGSLRLSCAASGFTLDYYAIAWFRQAPGKEREGVSCISTSDGSTYYADSVKGRFTISRDNAKNTVYLQMNSLKPEDTAVYYCAADPSPFFVAPLVDYEYDYWGQGTQVTVSS
Found: 0.000184
